system: MAR BEL fibroblasts cell line; assay: Evaluated for the inhibitory concentration required to cause growth inhibition of MAR BEL fibroblasts cell line using the MTT Cytotoxicity Assay; type: functional, cell-based; conditions: Homo sapiens
Reported Metric: IC50 (µM)

Record Smiles	Reported Metric	Reported Value
C/N=N\N(C)C(C)=O	IC50	80
CCOC(=O)N(C)/N=N\C	IC50	75
C/N=N\N(C)C(=O)NC	IC50	65
CNC(=O)N(C)/N=N\CCCl	IC50	47
CC(=O)N(C)/N=N\CCCl	IC50	44
CCOC(=O)N(C)/N=N\CCCl	IC50	46

====

system: A498; assay: Evaluated for the inhibitory concentration required to cause growth inhibition of A498Rem- renal cell line using the MTT Cytotoxicity Assay; format: functional, cell-based; conditions: Homo sapiens
pIC50: −log10 of the molar value.
Reported Metric: pIC50

Compound	Reported Metric	Reported Value
CNC(=O)N(C)/N=N\CCCl	pIC50	4.70
CCOC(=O)N(C)/N=N\CCCl	pIC50	4.80
CCOC(=O)N(C)/N=N\C	pIC50	4.46
C/N=N\N(C)C(=O)NC	pIC50	4.43
C/N=N\N(C)C(C)=O	pIC50	4.32
CC(=O)N(C)/N=N\CCCl	pIC50	4.74
O=NN(CCCl)C(=O)NCCCl [CARMUSTINE]	pIC50	3.96

====

Listing of entries alongside the reported IC50.
tested on: SK-MEL-5; assay: Evaluated for the inhibitory concentration required to cause growth inhibition of SK-MEL-5 melanoma cell line using the MTT Cytotoxicity Assay; format: functional, cell-based; conditions: Homo sapiens
Reported Metric: IC50 (µM)

Compound	Reported Metric	Unit Spec	Reported Value
CCOC(=O)N(C)/N=N\C	IC50	µM	20
CC(=O)N(C)/N=N\CCCl	IC50	µM	15
C/N=N\N(C)C(=O)NC	IC50	µM	20
CNC(=O)N(C)/N=N\CCCl	IC50	µM	13
CCOC(=O)N(C)/N=N\CCCl	IC50	µM	10
O=NN(CCCl)C(=O)NCCCl [CARMUSTINE]	IC50	µM	27
C/N=N\N(C)C(C)=O	IC50	µM	37

====

List of IC50 values.
system: TE-671; assay: Evaluated for the inhibitory concentration required to cause growth inhibition of TE-671 cell line of central nervous system (CNS)using the MTT Cytotoxicity Assay; assay type: functional, cell-based; settings: Homo sapiens

Compound	IC50 [µM]
C/N=N\N(C)C(=O)NC	46
CCOC(=O)N(C)/N=N\CCCl	34
O=NN(CCCl)C(=O)NCCCl [CARMUSTINE]	25
CNC(=O)N(C)/N=N\CCCl	55
CC(=O)N(C)/N=N\CCCl	50
CCOC(=O)N(C)/N=N\C	48
C/N=N\N(C)C(C)=O	7

====

system: Malme-3M; test: Evaluated for the inhibitory concentration required to cause growth inhibition of MALME-3M melanoma cell line using the MTT Cytotoxicity Assay; assay type: functional, cell-based; conditions: Homo sapiens
For each record, check the reported IC50: if it is below 20 µM write criterion met, else write criterion not met.

Record Smiles	Label Value
C/N=N\N(C)C(=O)NC	criterion not met
CC(=O)N(C)/N=N\CCCl	criterion not met
CCOC(=O)N(C)/N=N\CCCl	criterion met
CCOC(=O)N(C)/N=N\C	criterion not met
CNC(=O)N(C)/N=N\CCCl	criterion not met
C/N=N\N(C)C(C)=O	criterion not met
